# collection of pKi values tested on Amine oxidase [flavin-containing] B (Rattus norvegicus)
# Sequence (P19643 whole entry): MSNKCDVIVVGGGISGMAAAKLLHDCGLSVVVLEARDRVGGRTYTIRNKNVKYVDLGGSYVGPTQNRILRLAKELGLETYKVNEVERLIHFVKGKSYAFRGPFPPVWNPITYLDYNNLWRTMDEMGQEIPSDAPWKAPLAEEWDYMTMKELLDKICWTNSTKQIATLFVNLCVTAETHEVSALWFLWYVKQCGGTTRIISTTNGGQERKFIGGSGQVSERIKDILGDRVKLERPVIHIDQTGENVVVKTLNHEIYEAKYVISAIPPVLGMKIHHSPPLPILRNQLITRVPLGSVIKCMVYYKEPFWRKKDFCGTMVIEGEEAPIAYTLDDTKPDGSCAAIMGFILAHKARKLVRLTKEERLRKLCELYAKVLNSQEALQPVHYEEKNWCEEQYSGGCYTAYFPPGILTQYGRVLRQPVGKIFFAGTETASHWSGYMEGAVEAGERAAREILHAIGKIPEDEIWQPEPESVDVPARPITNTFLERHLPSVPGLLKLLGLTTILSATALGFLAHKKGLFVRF
Bear in mind: pKi is minus log10 of a mol/L concentration; give just that figure.

>  <smiles_entry>
CCCCSc1ccc(C[C@H](C)N)cc1

>  <pKi>
5.05

$$$$

Lab note: next molecule to report on.
Using Amine oxidase [flavin-containing] B (Rattus norvegicus) as the test system, report measured pKi of CCCSc1ccc(C[C@H](C)N)cc1 .
1.82

* * *

A collection of molecules and their measured Ki
molecular target: UniProtKB P21397; test: Inhibition of human recombinant MAOA expressed in Pichia pastoris
Sequence (P21397 whole entry): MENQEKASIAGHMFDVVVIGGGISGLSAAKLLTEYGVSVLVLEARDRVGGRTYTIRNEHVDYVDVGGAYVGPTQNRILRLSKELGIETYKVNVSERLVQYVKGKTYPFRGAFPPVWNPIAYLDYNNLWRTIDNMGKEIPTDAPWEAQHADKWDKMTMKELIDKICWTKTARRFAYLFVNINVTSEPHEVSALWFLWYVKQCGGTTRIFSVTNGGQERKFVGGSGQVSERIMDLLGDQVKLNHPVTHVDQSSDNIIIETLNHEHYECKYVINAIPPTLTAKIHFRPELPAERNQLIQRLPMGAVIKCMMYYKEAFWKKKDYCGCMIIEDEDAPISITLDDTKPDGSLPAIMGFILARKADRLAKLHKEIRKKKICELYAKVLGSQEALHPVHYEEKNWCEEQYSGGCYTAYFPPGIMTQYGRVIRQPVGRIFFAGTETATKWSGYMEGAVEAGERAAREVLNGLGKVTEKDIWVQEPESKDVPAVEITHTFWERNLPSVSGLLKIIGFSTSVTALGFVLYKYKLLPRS
# output: bare number, implied unit nM

Completed entries (count: 3):
>  <smiles_entry>
CSc1ccc(C[C@H](C)N)cc1

>  <result_value>
133

$$$$
>  <smiles_entry>
CCSc1ccc(C[C@H](C)N)cc1

>  <result_value>
75

$$$$
>  <smiles_entry>
CCCSc1ccc(C[C@H](C)N)cc1

>  <result_value>
30

$$$$

State its Ki: CCCCSc1ccc(C[C@H](C)N)cc1
22

* * *

Molecular target: UniProt P21396
Sequence (P21396 whole entry): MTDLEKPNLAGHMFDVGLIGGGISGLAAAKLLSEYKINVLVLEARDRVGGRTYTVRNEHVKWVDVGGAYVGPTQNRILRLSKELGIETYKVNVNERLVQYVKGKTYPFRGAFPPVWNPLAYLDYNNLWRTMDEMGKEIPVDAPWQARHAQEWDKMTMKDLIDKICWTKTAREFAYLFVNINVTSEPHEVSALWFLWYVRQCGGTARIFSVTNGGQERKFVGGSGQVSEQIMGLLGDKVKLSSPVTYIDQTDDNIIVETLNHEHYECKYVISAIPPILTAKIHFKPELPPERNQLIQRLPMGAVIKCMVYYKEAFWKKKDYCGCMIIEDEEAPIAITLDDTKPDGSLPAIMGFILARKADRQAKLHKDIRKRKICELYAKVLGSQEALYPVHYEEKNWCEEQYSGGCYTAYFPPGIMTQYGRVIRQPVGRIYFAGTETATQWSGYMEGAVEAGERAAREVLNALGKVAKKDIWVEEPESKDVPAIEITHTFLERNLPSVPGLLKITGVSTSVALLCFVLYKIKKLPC
The compounds listed here are annotated with their Ki.
Report the figure in nM without appending any unit label.

Example compounds with recorded Ki:
>  <smiles_entry>
CCCCSc1ccc(C[C@H](C)N)cc1

>  <target>
UniProt P21396

>  <result_value>
392

$$$$
>  <smiles_entry>
CSc1ccc(C[C@H](C)N)cc1

>  <target>
UniProt P21396

>  <result_value>
245

$$$$
>  <smiles_entry>
CCSc1ccc(C[C@H](C)N)cc1

>  <target>
UniProt P21396

>  <result_value>
54

$$$$

Next item in the queue.
Determine its reported Ki: CCCSc1ccc(C[C@H](C)N)cc1
115
